Source listed as the supplement of paper PMC9170038.

- System: MS2 coat protein
- Protocol Notes: apparent KD of MS2 coat protein; designed switch direction (-1 OFF switch, 1 ON switch): 1; higher = weaker reporter binding
- Experimental Setup: input ligand: FMN 200 uM
Answer not satisfied if apparent KD of MS2 coat protein is under 100 nM, and satisfied if it is 100 nM or more.

GCGGAACAGGCCGACAUGAGGAUCACCCAUGUGGCCUCAUGUCAGGAUAUCGGGAAGAAGAAAACCGAGAAGGGACGGUGACGC [AK SSNG3-V2-33.2] (Eterna round: R96, puzzle: Same State NG 3)	not satisfied

Determine whether this sequence has apparent KD of MS2 coat protein no lower than 100 nM: UGACACACGGCAGGAUAUGCUUAGCAAAGCUAAGCAGAAGGGCCUCAUGUCGUGGAAAUGUGACAUGAGGAUCACCCAUGUCGC [Omei SS(NG)1 Cv5] (Eterna round: R96, puzzle: Same State NG 1)
not satisfied

Is the recorded value of apparent KD of MS2 coat protein equal to or greater than 100 nM for this sequence? UGGAUCUAGGCUUGCCUGGGUCCAUGCUGACAUGAGGAUCACCCAUGUGCAUCCUACAAGCUUUUUGCUUGUCUGCC (Eterna round: R96, puzzle: Sensor for hsa-mir-208a)
satisfied

Does the reported apparent KD of MS2 coat protein for CUGAGCAGUCAAGGAUAUCACGUCGUUUAGACGUGAGAAGGUGACCAAUACAUGAGGAUCACCCAUGUAAUACAUGAAGCUCAG [SSNG1/12-A3] (Eterna round: R96, puzzle: Same State NG 1) fall at or above the 100 nM mark?
not satisfied

----------
Reported apparent KD of MS2 coat protein by item:
- Test system: MS2 coat protein
- Protocol Notes: apparent KD of MS2 coat protein; designed switch direction (-1 OFF switch, 1 ON switch): -1; higher = weaker reporter binding
- Experimental Setup: input ligand: none
Write the value in nM as a bare number.

Answer with reported apparent KD of MS2 coat protein of GCGCGGACAGGAUAUACAUGAGGAUCACCCAUGUGUGAGGCUAACAGUGCCAACUCUGGUAGAAGGGUCCCGGG [EX3 B.19] (Eterna round: R97, puzzle: Exclusion 3)
111

Item AAUUUGCAAGCGAGAUCCCACAUGAGGAUCACCCAUGUGCUCGUCUUAUAAGGUACUGUGACAAUAGUCACGGUACC [Mat - Sensor, turn-off var - Eli Mod - D94] (Eterna round: R97, puzzle: Sensor, turn-off variant 1) : provide apparent KD of MS2 coat protein
20.8

Please give the documented apparent KD of MS2 coat protein of GCGCGCGCAGGAUAUACAUGAGGAUCACCCAUGUAGGGCCCGGGUAUUCCCGGGCCCUGUAGAAGGGUGUGUGU [-40.4, -37.1 kcal, A 19%, 0-6] (Eterna round: R97, puzzle: Exclusion 3)
113

Specify apparent KD of MS2 coat protein for ACAUGAGGAUCACCCAUGUGAAAACAAUGGCUGACUUUGAGAUAGGAUAUAGGUGCAUAUCAAACCUAGAAGGGUCAUUACUGG [Deportation 91 - Jieux - Exclusion NG 3] (Eterna round: R96, puzzle: Exclusion NG 3) and stop.
46.5

----------
- Test system: MS2 coat protein
- Protocol Notes: apparent KD of MS2 coat protein; designed switch direction (-1 OFF switch, 1 ON switch): 1; higher = weaker reporter binding
- Experimental Setup: input ligand: FMN 200 uM
Endpoint Label: apparent KD of MS2 coat protein
The reply should read as a number followed by its unit.

CCAUAACAGUGAGGAUAUUGUUGCGAUAAGUGACGAGAAGGCAUUCAUGUGAAAUAAACAUACAUGAGGAUCACCCAUGUUGUA [Omei SS(NG)1 Bv2] (Eterna round: R96, puzzle: Same State NG 1)	17.9 nM
GUAGCAUACCGAGGAUAUUCAUAUUACAUGAGGAUCACCCAUGUUUUAGGCCGAUUACGGCCUUGGGAGAAGGCGGAAUGCUAC [Xeonanis - 20 Mod23] (Eterna round: R96, puzzle: Same State NG 2)	13.8 nM
GCUACGGCAGUAGGAUAUGUAGGAUAUGGCGAGAGCUAAGCUUGGAAGUCACUUCAGCCAGAAGGACAGAAGGACACCGUGAGG [pwkr ssNG2 2FMN + F9.16] (Eterna round: R96, puzzle: Same State NG 2)	125 nM
AAGUUAAGCUUUUUGUUCUGCCUAUUCUGACAUGAGGAUCACCCAUGUGGUCGAACGACUACGUGUGUAGUUGAGAU [JR_SHM208A_Sub030] (Eterna round: R96, puzzle: Sensor for hsa-mir-208a)	493 nM
GUAGCAUACCGAGGAUAUUCAUAUUAAACAUGAGGAUCACCCAUGUAUUAGGCCAAAAGGCCUUGGGAGAAGGCGGAAUGCUAC [Xeonanis - 20 Mod5] (Eterna round: R96, puzzle: Same State NG 2)	24.6 nM

Hello, please tell me recorded apparent KD of MS2 coat protein for this one: GGUCGGAACCACAUGAGGAUCACCCAUGUUCCGGAAACGGUACAGGAUAUCUGUCCGAAAAGGUCAGAGAAGGGUGAACCGACC [Fiskers NG3ss - 77] (Eterna round: R96, puzzle: Same State NG 3)
1090 nM

Give the reported apparent KD of MS2 coat protein for this sequence. AGCUAUUAAUCAGGAUAUGGUGACAUGAGGAUCACCCAUGUAUUGAUGAUUAAAUGUGGUCAAUACCAGAAGGGAUUACUAACA [SameState NG2 #51] (Eterna round: R96, puzzle: Same State NG 2)
44.6 nM

Name the recorded apparent KD of MS2 coat protein of the item GAGCCAGUCCGAGGAUAUUACAUGAGGAUCACCCAUGUAGGCUCAGAAAAGAAAAGAGAGCCUUGGGAGAAGGCGGACUGGCUC [Xeonanisa<<9] (Eterna round: R96, puzzle: Same State NG 2) in your answer.
8.19 nM

Quick one: give measured apparent KD of MS2 coat protein for UUUGCAUUGCAAGGAUAUUGAUAACAUGAGGAUCACCCAUGUAUAGGUUCAGGAUUUACGAGUAACAAGAAGGUGCUAUUGUUU [JR_SSNG2_Sub040] (Eterna round: R96, puzzle: Same State NG 2)
27.6 nM
